Value source: a protein production outcome set (Wang et al. 2014)

measurementDescription: label from the status in PepcDB records

{"columns": ["sequenceData", "protein production"],
 "data": [
  ["MGVPEINEYGQQVNDLVPGWQGAQVLRRTALNGRFCRLEPLDVDRHAADLFAAYALGDNSDWTWLASTRPESVTATAHWIAGKVNDDVLVPYAVVDLRSEQAVGIVSYMAIEREMGTVEIGHVTWSRRMKNTPLGTEAVWLLLKNGFDHGYRRLEWKCDSMNVASRRAAERLGFSWEGRLRQRLVRKGRTRDSDMLSIIDGEWPARDAALRAWLAAENFTADGQQIKRLEAFR", "failed"],
  ["MSLSSGRTVPTRSHGLGKEGVSTTGASQVEFGDPELTARINDAMVQVEELLHTELSSGEDFLVDIVMHLTRAGGKRFRPMFALLASEFGEKPLSENVIKAAVVVEITHLATLYHDDVMDEASMRRGVPSANARWDNSVAILAGDILLAHASGLMSQLGTDTVAHFAETFGELVTGQMRETVGPRDTDPIEHYTNVIREKTGVLIASAGYLGAMHAGAAPEHIDALKNFGAAVGMIFQIVDDIIDIFSETHESGKTPGTDLREGVFTLPVLYALREDTPVGAELRDILTGPLEDDETVNHVLELLSQSGGRQAALDEVYRYMDIANAELDRLPDSTVKEALRNLATFTVKRVGEGHHHHHH", "not failed"],
  ["MKYMIPDEEFIRREGVPITKEEIRAVSIGKLNLNKDDVVVDVGCGSGGMTVEIAKRCKFVYAIDYLDGAIEVTKQNLAKFNIKNCQIIKGRAEDVLDKLEFNKAFIGGTKNIEKIIEILDKKKINHIVANTIVLENAAKIINEFESRGYNVDAVNVFISYAKKIPSGHMFLAKNPITIIKAVR", "not failed"],
  ["PLSFSLLPATRDDIAMIVDRKRAQIARTHQYDVFACGWTVTLLERLVDASAEDFGLRTATLRAGGRVVAAELGLLSEGRYHLWLPIYDPEFARYSPGALMTLDTLEALAGLGVSRVDFGVDAD", "failed"]
]}

----------
measurementDescription: label from the status in PepcDB records
measuredParameter: protein production

{"columns": ["sequenceData", "recordedResult"],
 "data": [
  ["MSTAGLFSIFLIGIASNLDNAGVGIAYGIRKIRISWFNNFIIAFFGFLFTLLAGFFGNWIALFISEFTANLIGAIVLGIIGVFILCQPFLGQRNTVGSKDGNVLMGILRDPEKADFDGSKTISFSEAIVLGIALSINNIAGGFDAGITNLNLWLTATISGVFSFICISGFAYVGKRFLAEYLGKWATIIAEVLLILIGIDQLL", "failed"],
  ["MAGNFDSEERSSWYWGRLSRQEAVALLQGQRHGVFLVRDSSTSPGDYVLSVSENSRVSHYIINSSGPRPPVPPSPAQPPPGVSPSRLRIGDQEFDSLPALLEFYKIHYLDTTTLIEPVSRSRQGSGVILRQEEAEYVRALFDFNGNDEEDLPFKKGDILRIRDKPEEQWWNAEDSEGKRGMIPVPYVEKYRPASASVSALIGGNQEGSHPQPLGGPEPGPYAQPSVNTPLPNLQNGPIYARVIQKRVPNAYDKTALALEVGELVKVTKINVSGQWEGECNGKRGHFPFTHVRLLDQQNPDEDFS", "failed"],
  ["MASSISAAEVKVVPEEYNFLQKHVAFFDRNKDGIVYPSETFQGFRAIGCGYLLSTFAAVFINISLSSKTRPGKGFSFSFPIEVKNVRLGIHSSDSGVYDKDGRFVASKFEEIFAKHAHTHRDALTSKELKELLKANREPNDCKGGILAFGEWKVLYNLCKDKSGLLHKEIVRAVYDGSLFEQLEKQRSSKTP", "failed"],
  ["VSVGTHPTFENSPSGTVLTSPPDGSAVDRATDAARRVVDALLRTDRGNANLERVAEELNSIAGHLEEHAPAVAERLIDMWNGEGVTRHDPVTGPENALAPPVVLEGLSDGSVRGTVTLTIPYQGPPGHVHGGVSALLLDHVLGVANAWGGKAGMTAQLSTRYHRPTPLFEPLTLTGKLMSVDGRKITTAGDIRTADGQVCVSVEGLFVDKTVPRPR", "not failed"],
  ["MSLRIRVPATTANLGPGFDSCGLALTLYLTLDIGAEADSWYIEHNIGGGIPHDETNVIIETALNLAPNLTPHHLVMTCDIPPARGLGSSSAAVVAGIELANTLAELNLSKEEKVRIAAEIEGHPDNVAPAVLGNWVVGAKLDGEDFYVRHLFPDCALIAFIPKAELLTSESRGVLPDTLPFKEAVQASSIANVMIAAILRNDMALAGEMMERDLWHEKYRSQLVPHLTQIRDVAKSQGAYAACLSGAGPTVLVFAPRNLANTLQTSLQTLEIDADVLLLDVEGSGAEVFREGHHHHHH", "not failed"],
  ["MTPELNLKSLGAKTPYIFEYNSQLLEAFPNPNPNLDPLITLECKEFTSLCPITSQPDFGVIFIRYIPKDKMVESKSLKLYLFSYRNHGSFHESCINTILLDLVRLLEPKYLEVYGDFASRGGIAIKPFVNYAIKEYQDFKEKRLLNAK", "failed"]
]}

Then this sequence:
Query block: // query protein production value for entry `MREAIIKRAAKELKEGMYVNLGIGLPTLVANEVSGMNIVFQSENGLLGIGAYPLEGSVDADLINAGKETITVVPGASFFNSADSFAMIRGGHIDLAILGGMEVSQNGDLANWMIPKKLIKGMGGAMDLVHGAKKVIVIMEHCNKYGESKVKKECSLPLTGKGVVHQLITDLAVFEFSNNAMKLVELQEGVSLDQVKEKTEAEFEVRL`
Result block: failed

----------
measurementDescription: label from the status in PepcDB records
measuredParameter: protein production

{"columns": ["sequenceData", "measuredParameter", "recordedResult"],
 "data": [
  ["MSDKFNQFINRVLSHEGGYANHPKDPGGETNWGITKRTAQANGYNGSMRAMTREQAISIYRKAFWERYRADQMPEAVAFQFFDACVNHGYGNAARMLQRAAGVPDDGVIGAVSLKAINSLPENDLLLRFNAERLVFYTKLGTFTSFGKGWVRRVAQNLIHASADNTD", "protein production", "not failed"],
  ["MEEVKFYVRCYDKIELARMYFPNLSNPVSVAKLRRWMRNCMPLMEELMAGDFHPKMKMFSAREVRLIVRYLGEPDGYVFMHEHADVK", "protein production", "failed"],
  ["CTFKSVADEWVKTKTKLKPKTVQGNWRKLELYAFPKFGEIPVKSLTPIIVQEAFRPIARRGKLETVKRTIQLVNEIMRFAINSGLIQHNVLSGVG", "protein production", "failed"],
  ["MLNVIHALFFRELKTRFGKNRYLGYIWVVGEPMSVVLLVTIIGTVIREYHHQVMPEGISIFMFLISGIMPFFMFRSIVTQLMNGIGANLSLFAYKPVKPIHVFIARTLLEFCIYFVIFITVLFFAGWFFRLDVFPVHLLGVLFCIFLLICSAFALGICFAIVWHFVESLRTLLAYFSIVFYWSSGIIFPTWLTPRPLLDIFYYNPLLHIFELLRFNFFENYPLQDEYSYFYAIFWILLVLFIGLFIYYYNRQALTAAKKE", "protein production", "failed"]
]}

Then this sequence:
Query block: // query protein production value for entry `EGLNICKKIMVISDKNDAISEFIIKELERGCTIIDGKGGYTGKDTYILYTVLNRKEFIRLRIFIKETDPNAFITISDAKEVLGEGFKEI`
Result block: not failed

----------
measurementDescription: label from the status in PepcDB records

{"columns": ["sequenceData", "protein production"],
 "data": [
  ["MSFDPIYFLTPIIVMVFSFGMVYKLVKSIKVLMFSALAYFIAIVLKVLVQFFTLGYLASINSLAVLGLYYGLQTSIFEVGLAYVFALLGKLKNGWGYGVSLAMWENGVLISIPTLFIYIAYYFFPLILSTPSQLEYPITQALPLIGLSILERVSSLLIHSSWGYLSVLSVITGRKRLILVAFPMGFVDFLVPFEKYLGILTFEFIFFCIGLICLVMAWSLGKYYRSTSSKDT", "failed"],
  ["MLEKLIERVLFATRWLLAPLCIAMSLVLVVLGYVFMKELWHMLSHLNTISETDLVLSALGLVDLLFMAGLVLMVLLASYESFVSKLDKVDASEITWLKHTDFNALKLKVSLSIVAISAIFLLKRYMSLEDVLSSIPKDTPLSHNPIFWQVVIHLVFVCSALLAAVTNNIAFSQNKAH", "failed"],
  ["MAHGPTRQKITLTTEVAAEPAEVWARIGDFQDMSWHPAVHSSTGENGNEIDATRVLSLGAADGPTISEILYKYSDEKMSYSYRITDVLVEVLPVTNYSSHLTVKARDGGGSVIEWRGAFYRGYPNNDPPEDLEHHHHHH", "failed"]
]}

----------
measurementDescription: label from the status in PepcDB records
measuredParameter: protein production

{"columns": ["sequenceData", "recordedResult"],
 "data": [
  ["MSEYLPGIIWLVVLLVVNAFFVGAEFAVISARRSQIEPKAEAGSKAAKTTLWAMEHATLMLATSQLGITVCSLVILNVSEPAIHHLLEIPLGLTSLSGEAIGIIAFVAALLLVTFLHVVLGEMVPKNISFSVPTRAALILAPPLVMVARILKPVIWTLNGIANSILRLFKVEPKDEATSAYTLDEVANIVEQSTRDGMLSDTSGTLTAAFEFTSKTVADVEVPIGEMVLLPATSTPADIQRAVAEHGYSRYILTDDDGTPTGYLHLKDVMDLTTREKFDQPVPAKRIRKLASAYSGSELEDALATMRRSGAHVARVFDAAGNTTGVLFLEDIIEELVGEVQDATST", "not failed"],
  ["MTFSAFFQTIDDYSFRPMIPSFIRLLRFTGLFIAIFAPALYIAMISFHYEVIPLKLLLTIGESRAKIPFPPILEALLMELVLEMLREAAVRLPGPVGQTIGVVGGIVIGQAAVQAGIVSNVMVIVVSITAVASFIIPNLEMSAGIRLLRFPMMIIASLFGVIGIMVGMAIIIIHILSMESLGVPYGSPFSPLFASDLKDILIRLPWKIMKKRPLSLNLKQENRQSDIEGTEEDK", "failed"],
  ["LLADGQLQDWHDSTVYEIYHHWRHRYPKGVFENREHLFSAEIPRDTPIALQPEEHVSYGWFDMEEAAEKVFSPSNRRAILELGRFLGKR", "failed"],
  ["MKYCTLDDLILSFGQDEIYRLIATDQEAEKALDDAQAEIDMYLSDRYALPVKSVPKSLNRIACDIAHYYLYNSVDEDSTVYLRYKHRIKQLSDVAAGKLSLGLYDKSDDATTDNQVVFIKSSKKVFAR", "not failed"]
]}
